- test: The drug is tested on Collinsella aerofaciens strain: DSM3979 for biotransformation under anaerobic condition. The drug concentrations were measured over 6 timepoints collected between 0 and 12 hours of incubation by liquid-chromatography-coupled mass spectrometry (LC–MS)
- Format: ADME
- Design: dose 5 uM, timepoint 0, 1.5, 3, 6, 9, 12 hours
- study-conditions: 5 µM

molecule	Bacterial Biotransformation
CCC(C)(C)C(=O)O[C@H]1C[C@@H](C)C=C2C=C[C@H](C)[C@H](CC[C@@H]3C[C@@H](O)CC(=O)O3)[C@H]21	Compound NOT metabolized
NS(=O)(=O)c1cc(C(=O)O)c(NCc2ccco2)cc1Cl [FUROSEMIDE]	Compound NOT metabolized
